# tested_target: Sodium-dependent dopamine transporter (Homo sapiens, UniProt Q01959)
# Sequence (Q01959 whole entry): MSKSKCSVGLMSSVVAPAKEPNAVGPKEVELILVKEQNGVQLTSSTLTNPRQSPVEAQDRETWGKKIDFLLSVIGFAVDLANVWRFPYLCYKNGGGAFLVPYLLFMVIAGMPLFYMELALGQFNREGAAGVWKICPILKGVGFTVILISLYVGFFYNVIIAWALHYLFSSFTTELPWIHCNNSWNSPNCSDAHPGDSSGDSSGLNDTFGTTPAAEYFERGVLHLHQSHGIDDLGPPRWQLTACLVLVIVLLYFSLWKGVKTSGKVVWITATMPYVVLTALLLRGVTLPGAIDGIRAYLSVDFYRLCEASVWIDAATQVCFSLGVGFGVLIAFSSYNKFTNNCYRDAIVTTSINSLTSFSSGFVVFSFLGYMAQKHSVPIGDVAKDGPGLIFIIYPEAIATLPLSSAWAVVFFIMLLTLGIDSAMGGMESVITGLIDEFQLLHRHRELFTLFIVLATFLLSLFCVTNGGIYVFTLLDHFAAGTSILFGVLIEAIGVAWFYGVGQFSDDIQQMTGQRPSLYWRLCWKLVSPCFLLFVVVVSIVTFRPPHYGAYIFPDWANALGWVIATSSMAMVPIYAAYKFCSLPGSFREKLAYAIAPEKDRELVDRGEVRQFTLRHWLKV
# test_method_notes: Displacement of [3H]-dopamine from human DAT expressed in CHO cells by TopCounting analysis
Lab note: anything with IC50 below 200 nM is marked true (1); values at 200 nM or higher are marked false (0).

Input: Check if IC50 falls below 200 nM for COCC(c1ccc2ccccc2c1)C1CCNCC1 (racemic) .
Output: false (0)

Input: Say whether its IC50 is strictly beneath 200 nM. Entry: COCC(c1ccc(F)c(Cl)c1)C1CCNCC1 (racemic)
Output: false (0)

Input: I wonder whether OCC(c1ccc(Cl)c(Cl)c1)C1CCNCC1 (racemic) has IC50 below 200 nM. Can you tell?
Output: false (0)

Input: State whether 200 nM exceeds IC50 recorded for COCC(c1cccc(Cl)c1)C1CCNCC1 (racemic) .
Output: false (0)

Input: Is the reported IC50 for CCSCC(c1ccc(Cl)c(Cl)c1)C1CCNCC1 (racemic) strictly below 200 nM?
Output: true (1)

Input: Please determine if CSCC(c1ccc(Cl)c(Cl)c1)C1CCNCC1.Cl (racemic) is below 200 nM in terms of IC50.
Output: true (1)

Input: Please indicate whether the reported IC50 of CCCC(=O)C(c1ccc(Cl)c(Cl)c1)C1CCNCC1 (racemic) is strictly below 200 nM.
Output: true (1)

Input: is_below(IC50, 200 nM) for COC(=O)C(c1ccc(Cl)c(Cl)c1)C1CCNCC1 (racemic) ?
Output: false (0)

Input: Answer whether the molecule CCC(=O)C(c1ccc(Cl)c(Cl)c1)C1CCNCC1 (racemic) has IC50 strictly less than 200 nM
Output: true (1)

Input: For this molecule, is IC50 lower than 200 nM? CC(=O)C(c1ccc(Cl)c(Cl)c1)C1CCNCC1.Cl (racemic)
Output: true (1)

Input: For this molecule, is IC50 lower than 200 nM? CCOCC(c1ccc(Cl)c(Cl)c1)C1CCNCC1.Cl (racemic)
Output: true (1)
